Literature roundup of Platelet-derived growth factor receptor alpha (Homo sapiens) data, read-out IC50.

Recorded IC50, per entry:
[
  {
    "Chemical Structure": "Cn1ncc2ccc(-c3n[nH]c4c3Cc3sc(-c5ccc(NC6CCOCC6)cc5)cc3-4)cc21",
    "System": "Platelet-derived growth factor receptor alpha (Homo sapiens)",
    "IC50": "10 to 30 nM"
  },
  {
    "Chemical Structure": "Cn1cc(-c2cc(Oc3ccc(NC(=O)C4(C(=O)Nc5ccc(Cl)cc5)CC4)c(F)c3)ccn2)cn1",
    "System": "Platelet-derived growth factor receptor alpha (Homo sapiens)",
    "IC50": "< 2000 nM"
  },
  {
    "Chemical Structure": "Cn1ncc2ccc(-c3n[nH]c4c3Cc3sc(C#CCN5CCOCC5)cc3-4)cc21",
    "System": "Platelet-derived growth factor receptor alpha (Homo sapiens)",
    "IC50": "30 to 100 nM"
  }
]

Dear colleague, could you send me IC50 for each of the items below? Thanks.
1. CN1CCN(C(=O)c2ccc(-c3cc4c(s3)Cc3c(-c5ccc6cnn(C)c6c5)n[nH]c3-4)cc2)CC1
2. Cn1ncc2ccc(-c3n[nH]c4c3Cc3sc(-c5csc(C(=O)N6CCOCC6)n5)cc3-4)cc21
3. CCN1CCC(Nc2ccc3c(c2)/C(=C(\c2ccccc2)c2nc(CCN4C(=O)c5ccccc5C4=O)c[nH]2)C(=O)N3)CC1

Reply:
1. 1 to 10 nM
2. 1 to 10 nM
3. < 50 nM

Task item: If you can, please state the reported IC50 value of "CCN1CCC(Nc2ccc3c(c2)/C(=C(/c2ncc[nH]2)c2ccccc2F)C(=O)N3)CC1" .
Reply: < 50 nM

---

The entries below pair compounds with IC50 values for Platelet-derived growth factor receptor alpha (Homo sapiens, UniProt P16234), as found in several publications.

Record excerpt, results attached:
[
  {
    "Chemical Structure": "Cn1ncc2ccc(-c3n[nH]c4c3Cc3sc(-c5ccc(S(=O)(=O)N6CCOCC6)cc5)cc3-4)cc21",
    "Experimental Readout": "IC50",
    "Test Result": "1 to 10 nM"
  },
  {
    "Chemical Structure": "Cc1cc(NC(=O)C2(C(=O)Nc3ccc(F)cc3)CC2)c(F)cc1Oc1ccnc(-c2cnn(C)c2)c1",
    "Experimental Readout": "IC50",
    "Test Result": "< 2000 nM"
  },
  {
    "Chemical Structure": "Cn1ncc2ccc(-c3n[nH]c4c3Cc3sc(-c5ccc(CN6CCCCC6)cc5)cc3-4)cc21",
    "Experimental Readout": "IC50",
    "Test Result": "1 to 10 nM"
  }
]

# next compound below
Task item: Please report the recorded IC50 for "Cc1ccc(/C(=C2/C(=O)Nc3ccc(NC4CCN(C)CC4)cc32)c2ncc[nH]2)cc1" .
Reply: < 50 nM

---

Below are IC50 values for Platelet-derived growth factor receptor alpha (Homo sapiens, UniProt P16234) collected from several publications.

[
  {
    "Compound": "COCCN1CCC(Nc2ccc3c(c2)/C(=C(\\c2ccc(C)cc2)c2nc(C)c[nH]2)C(=O)N3)CC1",
    "System": "Platelet-derived growth factor receptor alpha (Homo sapiens, UniProt P16234)",
    "IC50": "< 50 nM"
  },
  {
    "Compound": "CC(NC(=O)c1ccc(C2CC2)c(-c2ccc3nc(Nc4cnn(C5CC5)c4)ncc3c2)c1)c1cccc(C(F)(F)F)c1 (stereo not drawn)",
    "System": "Platelet-derived growth factor receptor alpha (Homo sapiens, UniProt P16234)",
    "IC50": "> 1000 nM"
  }
]

With those in mind, consider the next compound.
Task item: Which measured IC50 value corresponds to "Cn1ncc2ccc(-c3n[nH]c4c3Cc3sc(-c5ccc(CN6CCC(F)(F)C6)cc5)cc3-4)cc21" ?
Reply: 10 to 30 nM
